subject of test: SpsB (Staphylococcus aureus signal peptidase) (Staphylococcus aureus)
Construct: This assay uses a suspension of Staphylococcus aureus cells as a source of SpsB instead of recombinant SpsB protein; endogenous in cells; host or cells: S. aureus, USA300 background, overexpressing SpsB (whole-cell suspension from frozen pellets)
Sequence (P0A070 whole entry): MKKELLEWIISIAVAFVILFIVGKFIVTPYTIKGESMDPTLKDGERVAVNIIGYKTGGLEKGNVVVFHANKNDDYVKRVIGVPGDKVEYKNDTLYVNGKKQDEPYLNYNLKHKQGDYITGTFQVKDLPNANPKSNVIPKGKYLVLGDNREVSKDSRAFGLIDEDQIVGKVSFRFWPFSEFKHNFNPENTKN
experiment description: cell-based
Assay type: biochemical
measurement context: SpsB IC50, whole-cell S. aureus (USA300 background, overexpressing SpsB) as SpsB source; fluorogenic peptide substrate, kinetic read 30 min
attribute measured: IC50 (nM)

- record smiles: "C[C@@H]1NC(=O)[C@@H](N(C)C(=O)[C@H](CCCCN)NC(=O)c2ccc(-c3ccc(C(C)(C)C)cc3)cc2)c2ccc(OCCN)c(c2)-c2cc(ccc2OCCN)C[C@@H](C(=O)NCC#N)NC1=O"
  value observed: 1.2
- record smiles: "Cc1cc(-n2cc(CC(C)C)cn2)ccc1C(=O)N[C@@H](CCN)C(=O)N(C)[C@@H]1C(=O)N[C@@H](C)C(=O)N[C@H](C(=O)NCC#N)Cc2ccc(OCCN)c(c2)-c2cc1ccc2OCCN"
  value observed: 1
- record smiles: "C[C@@H]1NC(=O)[C@@H](N(C)C(=O)[C@H](CCN)NC(=O)c2ccc(-c3ccc(Cl)cc3)cc2)c2ccc(OCCN)c(c2)-c2cc(ccc2OCCN)C[C@@H](C(=O)NCC#N)NC1=O"
  value observed: 0.69
- record smiles: "CCCCc1ccc(-c2ccc(C(=O)N[C@@H](CN)C(=O)N(C)[C@@H]3C(=O)N[C@@H](C)C(=O)N[C@H](C(=O)NCC#N)Cc4ccc(OCCO)c(c4)-c4cc3ccc4OCCN)cc2)cc1"
  value observed: 1.8
- record smiles: "C[C@@H]1NC(=O)[C@@H](N(C)C(=O)[C@H](CCCCN)NC(=O)Cc2ccc(-c3ccc(Cl)cc3)cc2)c2ccc(OCCN)c(c2)-c2cc(ccc2OCCN)C[C@@H](C(=O)NCC#N)NC1=O"
  value observed: 2
- record smiles: "CCCCCCCc1cc(Cl)c(C(=O)N[C@@H](CCN)C(=O)N(C)[C@@H]2C(=O)N[C@@H](C)C(=O)N[C@H](C(=O)NCC#N)Cc3ccc(OCCN)c(c3)-c3cc2ccc3OCCN)c(Cl)c1"
  value observed: 0.88
- record smiles: "CCCCc1ccc(-c2ccc(C(=O)N[C@@H](CCCCN)C(=O)N(C)[C@@H]3C(=O)N[C@@H](C)C(=O)N[C@H](C(=O)NC4(C#N)CC4)Cc4ccc(OCCN)c(c4)-c4cc3ccc4OCCN)cc2)cc1"
  value observed: 2.1
- record smiles: "CCCCCCCCc1ccc(C(=O)N[C@@H](CCN)C(=O)N(C)[C@@H]2C(=O)N[C@@H](C)C(=O)N[C@H](C(=O)NCC#N)Cc3ccc(OCCN)c(c3)-c3cc2ccc3OCCN)c(OCC(N)=O)c1"
  value observed: 1.1
- record smiles: "CCCCCCCCc1ccc(C(=O)N[C@@H](CCN)C(=O)N(C)[C@@H]2C(=O)N[C@@H](C)C(=O)N[C@H](C(=O)NCC#N)Cc3ccc(OCCN)c(c3)-c3cc2ccc3OCCN)c(Cl)c1"
  value observed: 0.8

* * *

Tested on: Methicillin Resistant Staphylococcus aureus strain USA 300, NRS384
experiment description: Minimum inhibitory concentration, broth micro-dilution (CLSI), S. aureus
Type: cell-based
measurement context: Staphylococcus aureus, MRSA / NRS 384 / USA300, 22 h, MRSA USA 300 NRS384; 35° C., 22 hours; read-out: MIC (μg/mL) S. aureus

- compound: "CCCCCCCOc1ccc(C(=O)N[C@@H](CCN)C(=O)N(C)[C@@H]2C(=O)N[C@@H](C)C(=O)N[C@H](C(=O)NCC#N)Cc3ccc(OCCN)c(c3)-c3cc2ccc3OCCN)c(C(F)F)c1"
  subject of test: "Methicillin Resistant Staphylococcus aureus strain USA 300, NRS384"
  MIC / µg/mL: 0.063
- compound: "CCCCCCCCc1ccc(C(=O)N[C@@H](CN)C(=O)N(C)[C@@H]2C(=O)N[C@@H](C)C(=O)N[C@H](C(=O)NCC#N)Cc3ccc(OCCN)c(c3)-c3cc2ccc3OCCN)cc1"
  subject of test: "Methicillin Resistant Staphylococcus aureus strain USA 300, NRS384"
  MIC / µg/mL: 0.094
- compound: "CCc1cnc(-c2ccc(C(=O)N[C@@H](CCN)C(=O)N(C)[C@@H]3C(=O)N[C@@H](C)C(=O)N[C@H](C(=O)NCC#N)Cc4ccc(OCCN)c(c4)-c4cc3ccc4OCCN)c(C)c2)nc1"
  subject of test: "Methicillin Resistant Staphylococcus aureus strain USA 300, NRS384"
  MIC / µg/mL: 1
- compound: "Cc1cc(C#CC(C)C)ccc1C(=O)N[C@@H](CCN)C(=O)N(C)[C@@H]1C(=O)N[C@@H](C)C(=O)N[C@H](C(=O)NCC#N)Cc2ccc(OCCN)c(c2)-c2cc1ccc2OCCN"
  subject of test: "Methicillin Resistant Staphylococcus aureus strain USA 300, NRS384"
  MIC / µg/mL: 0.19
- compound: "CCCCCCCCCCCC(=O)N[C@@H](C)C(=O)N(C)[C@@H]1C(=O)N[C@@H](C)C(=O)N[C@H](C(=O)NCC#N)Cc2ccc(OCCN)c(c2)-c2cc1ccc2OCCN"
  subject of test: "Methicillin Resistant Staphylococcus aureus strain USA 300, NRS384"
  MIC / µg/mL: 0.13
- compound: "CCCCCCCCc1ccc(C(=O)N[C@@H](CCCN)C(=O)N(C)[C@@H]2C(=O)N[C@@H](C)C(=O)N[C@H](C(=O)NCC#N)Cc3ccc(OCCN)c(c3)-c3cc2ccc3OCCN)cc1"
  subject of test: "Methicillin Resistant Staphylococcus aureus strain USA 300, NRS384"
  MIC / µg/mL: 0.031
- compound: "C[C@@H]1NC(=O)[C@@H](N(C)C(=O)[C@H](CCCCN)NC(=O)c2ccc(-c3ccc(Cl)cc3)cc2)c2ccc(O)c(c2)-c2cc(ccc2O)C[C@@H](C(=O)N[C@@H](C)C#N)NC1=O"
  subject of test: "Methicillin Resistant Staphylococcus aureus strain USA 300, NRS384"
  MIC / µg/mL: 13
- compound: "Cc1cc(C2CCC2)ccc1C(=O)N[C@@H](CCN)C(=O)N(C)[C@@H]1C(=O)N[C@@H](C)C(=O)N[C@H](C(=O)NCC#N)Cc2ccc(OCCN)c(c2)-c2cc1ccc2OCCN"
  subject of test: "Methicillin Resistant Staphylococcus aureus strain USA 300, NRS384"
  MIC / µg/mL: 0.25
- compound: "CC(C)Cc1ccc(-c2ccc(C(=O)N[C@@H](CCN)C(=O)N(C)[C@@H]3C(=O)N[C@@H](C)C(=O)N[C@H](C(=O)NCC#N)Cc4ccc(OCCN)c(c4)-c4cc3ccc4OCCN)c(C(F)F)c2)cc1"
  subject of test: "Methicillin Resistant Staphylococcus aureus strain USA 300, NRS384"
  MIC / µg/mL: 0.094
- compound: "Cc1cc(C2CC(c3ccccc3)C2)ccc1C(=O)N[C@@H](CCN)C(=O)N(C)[C@@H]1C(=O)N[C@@H](C)C(=O)N[C@H](C(=O)NCC#N)Cc2ccc(OCCN)c(c2)-c2cc1ccc2OCCN (stereo partly shown)"
  subject of test: "Methicillin Resistant Staphylococcus aureus strain USA 300, NRS384"
  MIC / µg/mL: 0.063

* * *

Test system: Methicillin Resistant Staphylococcus aureus strain USA 300, NRS384
experiment description: Minimum inhibitory concentration, broth micro-dilution (CLSI), S. aureus
Type: cell-based
measurement context: Staphylococcus aureus, MRSA / NRS 384 / USA300, 22 h, MRSA USA 300 NRS384; 35° C., 22 hours; read-out: MIC (μg/mL) S. aureus
attribute measured: MIC (µg/mL)

- record smiles: "Cc1cc(-c2ccc(CC(C)C)cc2)ccc1C(=O)N[C@@H](CCO)C(=O)N(C)[C@@H]1C(=O)N[C@@H](C)C(=O)N[C@H](C(=O)NCC#N)Cc2ccc(OCCN)c(c2)-c2cc1ccc2OCCN"
  attribute measured: "MIC"
  unit of measurement: "µg/mL"
  value observed: 0.13
- record smiles: "Cc1nc(Oc2ccc(CC(C)C)cc2)ncc1C(=O)N[C@@H](CCN)C(=O)N(C)[C@@H]1C(=O)N[C@@H](C)C(=O)N[C@H](C(=O)NCC#N)Cc2ccc(OCCN)c(c2)-c2cc1ccc2OCCN"
  attribute measured: "MIC"
  unit of measurement: "µg/mL"
  value observed: 0.047
- record smiles: "CCCCCCCCCCCC(=O)N[C@@H](CCO)C(=O)N(C)[C@@H]1C(=O)N[C@@H](C)C(=O)N[C@H](C(=O)NCC#N)Cc2ccc(OCCN)c(c2)-c2cc1ccc2OCCN"
  attribute measured: "MIC"
  unit of measurement: "µg/mL"
  value observed: 0.13
- record smiles: "CCCCc1ccc(-c2cccc(C(=O)N[C@@H](CCCCN)C(=O)N(C)[C@@H]3C(=O)N[C@@H](C)C(=O)N[C@H](C(=O)NCC#N)Cc4ccc(OCCN)c(c4)-c4cc3ccc4OCCN)c2)cc1"
  attribute measured: "MIC"
  unit of measurement: "µg/mL"
  value observed: 0.063
- record smiles: "Cc1cc(-c2ccccc2)ccc1C(=O)N[C@@H](CCN)C(=O)N(C)[C@@H]1C(=O)N[C@@H](C)C(=O)N[C@H](C(=O)NCC#N)Cc2ccc(OCCN)c(c2)-c2cc1ccc2OCCN"
  attribute measured: "MIC"
  unit of measurement: "µg/mL"
  value observed: 0.19

Taken from patent US20180327367A1.
